ASSAY: Clinical pharmacokinetics study in healthy volunteers, IV bolus + 1-step infusion
Assay type: in vivo, human
ASSAY_CONDITIONS: both sexes, human, plasma, iv, bolus 1.8 μg/kg, infusion 3 μg/kg/hr for 12 hours; read-out: AOL plasma concentration End of 12-hour infusion (IV)
QUANTITY_MEASURED: concentration at 12 hours

| COMPOUND | RESULT |
| --- | --- |
| COc1ccc(-c2cc(=S)ss2)cc1 [AOL, 5-(4-methoxyphenyl)dithiole-3-thione] | ~1.7 ng/mL |

###

ASSAY: Clinical pharmacokinetics study in healthy volunteers, IV bolus + 1-step infusion
Format: in vivo, human
ASSAY_CONDITIONS: both sexes, human, plasma, intravenous, bolus 4 μg/kg, infusion 6 μg/kg/hr for 12 hours; read-out: AOL plasma concentration Cmax
QUANTITY_MEASURED: Cmax

| MOLECULE | QUANTITY_MEASURED | RESULT |
| --- | --- | --- |
| COc1ccc(-c2cc(=S)ss2)cc1 [AOL, 5-(4-methoxyphenyl)dithiole-3-thione] | Cmax | 4.14 ng/mL |
